Test Name: AUC in rat plasma at 30 mg/kg, po administered as single dose after 6 hrs
Format: ADME, organism-based
Parameters: time < 6 hr, dose 30 mg/kg, route oral
Measure: AUC at 6 h

Input: # AUC at 6 h lookup, item CCN(CC)C(=O)c1ccc(C2=CC3(CCNCC3)Oc3ccccc32)c(O)c1 [ADL-5747 FREE BASE]
Output: 4610 ng·h/mL

* * *

Test Name: AUC in rat brain raphe magnus at 30 mg/kg, po administered as single dose after 6 hrs
Type: ADME, organism-based
Parameters: dose 30 mg/kg, route oral
Test Parameters: read-out: Drug uptake
Measure: AUC at 6 h (ng·h/mL)
One number for each entry, in ng·h/mL.

Input: # AUC at 6 h lookup, item CCN(CC)C(=O)c1ccc(C2=CC3(CCNCC3)Oc3ccccc32)c(O)c1 [ADL-5747 FREE BASE]
Output: 105

* * *

Test Name: Oral bioavailability in rat at 10 mg/kg administered as single dose
Type: ADME, organism-based
Test Parameters: in vivo
Measure: bioavailability (%)
Answers are plain numbers, in %.

Input: # bioavailability lookup, item CCN(CC)C(=O)c1ccc(C2=CC3(CCNCC3)Oc3ccccc32)c(O)c1 [ADL-5747 FREE BASE]
Output: 37.6

* * *

Test Name: Half life in Beagle dog at 1 mg/kg, iv administered as single dose
Type: ADME, organism-based, Canis lupus familiaris
Parameters: dose 1 mg/kg, route intravenous
Test Parameters: in vivo
Measure: half-life (h)
Give bare numbers, in h.

Input: # half-life lookup, item CCN(CC)C(=O)c1ccc(C2=CC3(CCNCC3)Oc3ccccc32)c(O)c1 [ADL-5747 FREE BASE]
Output: 12.2

* * *

Test Name: Systemic clearance in rat at 2.5 mg/kg, iv administered as single dose
Assay type: ADME, organism-based
Set-up: dose 2.5 mg/kg, route intravenous
Test Parameters: in vivo
Measure: clearance (mL/min/kg)
One number for each entry, in mL/min/kg.

Input: # clearance lookup, item CCN(CC)C(=O)c1ccc(C2=CC3(CCNCC3)Oc3ccccc32)c(O)c1 [ADL-5747 FREE BASE]
Output: 55

* * *

Test Name: Cmax in rat at 10 mg/kg, po administered as single dose
Assay type: ADME, organism-based
Set-up: dose 10 mg/kg, route oral
Test Parameters: in vivo
Measure: Cmax (ng/mL)
Answers are plain numbers, in ng/mL.

Input: # Cmax lookup, item CCN(CC)C(=O)c1ccc(C2=CC3(CCNCC3)Oc3ccccc32)c(O)c1 [ADL-5747 FREE BASE]
Output: 246

* * *

Test Name: Half life in Beagle dog at 3 mg/kg, po administered as single dose
Assay type: ADME, organism-based, Canis lupus familiaris
Design: dose 3 mg/kg, route oral
Test Parameters: in vivo
Measure: half-life (h)
Answers are plain numbers, in h.

Input: # half-life lookup, item CCN(CC)C(=O)c1ccc(C2=CC3(CCNCC3)Oc3ccccc32)c(O)c1 [ADL-5747 FREE BASE]
Output: 7.7

* * *

Test Name: Oral bioavailability in Beagle dog at 3 mg/kg administered as single dose
Assay type: ADME, organism-based, Canis lupus familiaris
Test Parameters: in vivo
Measure: bioavailability

Input: # bioavailability lookup, item CCN(CC)C(=O)c1ccc(C2=CC3(CCNCC3)Oc3ccccc32)c(O)c1 [ADL-5747 FREE BASE]
Output: 54.5%

* * *

Test Name: Metabolic stability in Beagle dog liver microsomes assessed as compound remaining after 30 mins
Type: ADME, Canis lupus familiaris, Microsome
Test Parameters: read-out: Stability
Measure: remaining at 0.5 h (%)
One number for each entry, in %.

Input: # remaining at 0.5 h lookup, item CCN(CC)C(=O)c1ccc(C2=CC3(CCNCC3)Oc3ccccc32)c(O)c1 [ADL-5747 FREE BASE]
Output: 63.9

* * *

System: CYP2D6
Test Name: In vitro stability in presence of human CYP2D6 assessed as compound remaining at 1 uM after 1 hr
Format: ADME
Test Parameters: read-out: Stability
Measure: remaining at 1 h, 1 µM (%)
One number for each entry, in %.

Input: # remaining at 1 h, 1 µM lookup, item CCN(CC)C(=O)c1ccc(C2=CC3(CCNCC3)Oc3ccccc32)c(O)c1 [ADL-5747 FREE BASE]
Output: 63.2

* * *

Test Name: AUC (0 to infinity) in Beagle dog at 3 mg/kg, po administered as single dose
Assay type: ADME, organism-based, Canis lupus familiaris
Design: time infinity, dose 3 mg/kg, route oral
Test Parameters: plasma
Measure: AUC(0-inf) (ng·h/mL)
One number for each entry, in ng·h/mL.

Input: # AUC(0-inf) lookup, item CCN(CC)C(=O)c1ccc(C2=CC3(CCNCC3)Oc3ccccc32)c(O)c1 [ADL-5747 FREE BASE]
Output: 4200

* * *

Test Name: AUC (0 to infinity) in rat at 2.5 mg/kg, iv administered as single dose
Format: ADME, organism-based
Design: time infinity, dose 2.5 mg/kg, route intravenous
Test Parameters: plasma
Measure: AUC(0-inf) (ng·h/mL)
Give bare numbers, in ng·h/mL.

Input: # AUC(0-inf) lookup, item CCN(CC)C(=O)c1ccc(C2=CC3(CCNCC3)Oc3ccccc32)c(O)c1 [ADL-5747 FREE BASE]
Output: 780

* * *

Test Name: Volume of distribution at steady state in rat at 2.5 mg/kg, iv administered as single dose
Type: ADME, organism-based
Design: dose 2.5 mg/kg, route intravenous
Test Parameters: in vivo, read-out: Vdss
Measure: Vd

Input: # Vd lookup, item CCN(CC)C(=O)c1ccc(C2=CC3(CCNCC3)Oc3ccccc32)c(O)c1 [ADL-5747 FREE BASE]
Output: 18.1 L/kg

* * *

Test Name: Metabolic stability in rat liver microsomes assessed as compound remaining after 30 mins
Assay type: ADME, Microsome
Test Parameters: read-out: Stability
Measure: remaining at 0.5 h (%)
Give bare numbers, in %.

Input: # remaining at 0.5 h lookup, item CCN(CC)C(=O)c1ccc(C2=CC3(CCNCC3)Oc3ccccc32)c(O)c1 [ADL-5747 FREE BASE]
Output: 59.7
